Items are presented alongside their recorded melting point.

Examples with answers:
O=C1c2ccccc2C(=O)N1OCC1COCOC1 : 98 to 106 °C
C#Cc1cccc(Nc2ncnc3c2ccn3CCOCCOC)c1 : 240 to 241 °C
COC(=O)c1cc(-n2c(-c3ccccc3)cc3c2CCCC3)ccc1O : 141 to 142 °C
CC(C)C(=O)c1cc(O)c(O)c([N+](=O)[O-])c1 : 98 to 99 °C
CCN(CC)c1ccc([N+](=O)[O-])c(N2CCN(C(C)=O)CC2)n1 : 120 °C

Challenge: Need melting point, item `CCOC(=O)C(=O)Nc1ccc(C(N)=O)c(C(N)=O)c1`
Response given: 229 to 230 °C

Challenge: Need melting point, item `CCCCCCCCC=CCCCCCCCCCCCC(=O)NC`
Response given: 48 to 49 °C

Challenge: Need melting point, item `C=C(c1ccc(Cl)cc1)c1ccc(NC(=O)c2cc(Br)cc(Br)c2O)cc1`
Response given: 181 to 183 °C

Challenge: Need melting point, item c1ccc(Oc2ccc(C(c3ccccc3)(c3ccccn3)n3ccnc3)cc2)cc1 (stereo not given)
Response given: 137 to 140 °C

Challenge: Need melting point, item `COCOc1cccc(ON=C(C)C)c1C#N`
Response given: 62 to 64 °C

---

Items are presented alongside their recorded melting point.

Examples with answers:
O=C(NCc1ccccn1)Nc1cc(N2CC(CCc3ccccc3)OC2=O)ccn1 (centres undefined) : 194 to 195 °C
O=c1[nH]c2cc(Cl)ccc2n1C1CCN(Cc2cccc(-c3ccc(Cl)cc3)n2)CC1 : 203 to 205 °C
CS(=O)c1ccc(-c2c(-c3ccncc3)nc3n2CCC3)cc1 (centres undefined) : 180 to 182 °C
Cc1oc(-c2ccccc2)nc1COc1ccc(Cn2cc(C(=O)O)c(-c3cccs3)n2)cc1 : 204 to 205 °C
CN(CCOc1ccc(CC(SCCN)C(=O)O)cc1)c1nc2ccccc2o1 (centres undefined) : 200 to 201 °C

Challenge: Need melting point, item `CCCCc1nc2c(N)nc3ccccc3c2n1CCCCC(=O)N1CCOCC1`
Response given: 141 to 143 °C

Challenge: Need melting point, item O=C(Cc1ccccc1)N1C[C@@H]2SCCC(c3ccccc3)(c3ccccc3)[C@@H]2C1 (racemic)
Response given: 210 °C

Challenge: Need melting point, item CC(=O)OCCC(C(N)=O)C1(C)OCCc2c1[nH]c1ccccc21 (centres undefined)
Response given: 141 to 143 °C

Challenge: Need melting point, item `CCc1nnc(NS(=O)(=O)c2ccc(N)cc2)s1`
Response given: 190 to 191 °C

---

Measured Parameter: melting point

CC(C)(C)C(=O)Nc1ccc(SSc2ccc(NC(=O)C(C)(C)C)cc2C(N)=O)c(C(N)=O)c1 : 288 to 289 °C
O=C(CBr)c1coc2ccccc2c1=O : 140 to 145 °C
COc1ccc(Nc2ccc(C)cc2)cc1 : 81 to 82 °C
CCOC(=O)c1c(Cl)nc2cc(OC)c(OC)cc2c1-c1ccc(OC)c(OC)c1 : 168 to 169 °C

Challenge: Need melting point, item `CC(C)[C@H](NC(=O)N(C)Cc1ccccn1)C(=O)N[C@@H](Cc1ccccc1)C[C@H](O)[C@H](Cc1ccccc1)NC(=O)[C@@H](NC(=O)N(C)Cc1ccccn1)C(C)C`
Response given: 92 to 96 °C

Challenge: Need melting point, item O=C1Nc2cc(C(F)(F)F)ccc2C1c1ncnc2c1cnn2C1CCCCC1 (stereo not drawn)
Response given: 277 to 280 °C

Challenge: Need melting point, item `CCCCCCc1cc(C=O)c(O)cc1O`
Response given: 108 to 110 °C

Challenge: Need melting point, item `CCCOc1ccc(-c2c(C(=O)OC)c(C(=O)OC)c(O)c3cc(OC)c(OC)c(OC)c23)cc1OCCC`
Response given: 132 °C

Challenge: Need melting point, item `Cc1ccc(C(=O)O)c(NC(=O)CCCCNC(=O)OC(C)(C)C)c1`
Response given: 212 °C

Challenge: Need melting point, item `CSc1ncnc(SC)c1NC(=O)CN1CCN(CCSc2nc3ccccc3o2)CC1`
Response given: 171 to 172 °C

Challenge: Need melting point, item `Cc1nc2cccc(S(=O)(=O)n3c(CCCC(=O)O)cc4nc(Cl)ccc43)c2s1`
Response given: 225 °C

Challenge: Need melting point, item `CCOc1cc(C(=O)OC)cc(OCC)c1N=Nc1ccccc1`
Response given: 92 °C

Challenge: Need melting point, item `COC(=O)c1ccc(Cn2nc(Br)c3ccc(C(=O)NCC4CCCC4)cc32)c(OC)c1`
Response given: 161 to 162 °C

Challenge: Need melting point, item `Cn1ncc2c1-c1c(Sc3ccccc3)sc(C(N)=O)c1CC2`
Response given: 140 to 141 °C

Challenge: Need melting point, item `CN1CCN(c2cccc3ccc(C(=O)NCc4ccc(Cl)cc4)cc23)CC1`
Response given: 72 to 74 °C

Challenge: Need melting point, item O=C(OCC1OC(n2ccc(=O)[nH]c2=O)C(O)C1OC(=O)c1ccccc1)c1ccccc1 (stereo not drawn)
Response given: 111 to 114 °C

Challenge: Need melting point, item `C[C@H](CO)Nc1nc(SCc2cccc(F)c2F)nc2c1=NC(=O)C(=O)N=2`
Response given: 243 to 246 °C

Challenge: Need melting point, item `COc1ccc(C(=O)Nc2ccc3ccc(Oc4ccc(Cl)c(Cl)c4)nc3n2)cc1`
Response given: 180 °C

Challenge: Need melting point, item `CCCCCCCN(CC(c1ccccc1)c1ccccc1)C(=O)Nc1c(C)cccc1C`
Response given: 171 to 173 °C

Challenge: Need melting point, item `COC(=O)c1[nH]c(C)c(C)c1O`
Response given: 170 to 172 °C

Challenge: Need melting point, item COc1cc(C(=O)P2(=O)Oc3ccccc3-c3ccccc32)cc(OC)c1OC (stereo not drawn)
Response given: 147 to 149 °C

Challenge: Need melting point, item `CCCC(=O)N(C)SN(C(=O)NC(=O)c1c(F)cccc1F)c1ccc(Oc2ccc(C(F)(F)F)cc2Cl)cc1F`
Response given: 136 to 138 °C

Challenge: Need melting point, item `Cc1noc(NS(=O)(=O)c2ccccc2-c2ccc(-c3ncco3)cc2Cn2cccn2)c1C`
Response given: 140 to 146 °C

Challenge: Need melting point, item O=C(O)C1CC(=O)N(c2ccccc2)N1 (stereo not drawn)
Response given: 197 to 199 °C

Challenge: Need melting point, item `CC(C)[C@H](NC(=O)/C=C/c1cccnc1)C(=O)N[C@@H](Cc1ccccc1)[C@@H](O)[C@H](O)[C@H](Cc1ccccc1)NC(=O)[C@@H](NC(=O)/C=C/c1cccnc1)C(C)C`
Response given: 285 to 289 °C

---

Items are presented alongside their recorded melting point.
All answers are understood in °C, so give the number only.

Examples with answers:
Cc1cc2cnc(OCCc3ccc(OC(C)(C)C)cc3)nc2o1 : 75
OC12CC3CC(O)(C1)CC(O)(C3)C2 : 217
COc1ccc2c(c1)c1c(n2CCBr)C(=O)CCC1 : 119

Now for a further compound.
Challenge: Need melting point, item `CCCCc1c(-c2cccnn2)ssc1=S`
Response given: 94

---

Items are presented alongside their recorded melting point.

CONC(=O)c1nsc2ccc(-n3c(=O)cc(C(F)(F)F)n(C)c3=O)cc12 : 125 to 127 °C
COCOc1c(NC(=S)NCc2cccnc2)cc(OC)cc1C(C)(C)C : 137 to 138 °C
O=C1OC(=O)c2c1cccc2N1C(=O)CCCC1=O : 234 to 236 °C
O=C(c1cccc(Oc2ccccc2)c1)c1cccc(Br)n1 : 65 to 66 °C
CC(C)CCCC(C)C1CC=C2C3=C(CCC21C)C1(C)CCC(O)CC1CC3 (stereo not given) : 113 to 114 °C
CCCO/N=C(\C(=O)OC)c1csc(N)n1 : 115 to 116 °C
COc1ccc(C(=O)NC(=O)Nc2ccc3c(c2)NC(=O)/C3=C\c2ccncc2)cc1 : 270 to 275 °C
O=C(CCOCc1ccc2ccccc2c1)c1ccccc1 : 56 to 57 °C
Cc1oc(-c2ccccc2)nc1CCOc1cccc2sccc12 : 130 to 132 °C

Challenge: Need melting point, item `Cn1nc(-c2cc(C(=O)O)c(Cl)cc2F)c(C=O)c1C(F)(F)F`
Response given: 163 °C

---

Items are presented alongside their recorded melting point.

CCOc1ccccc1OCC(O)CCN1C(=O)c2ccccc2C1=O (centres undefined) : 93 to 95 °C
Cc1cc(C(=O)O)ncc1C(c1c(F)ccc(F)c1F)S(=O)(=O)CCC(F)(F)F (centres undefined) : 85 to 87 °C
[N-]=[N+]=NS(=O)(=O)c1cc(C(=O)O)cc(S(=O)(=O)N=[N+]=[N-])c1 : 181 to 183 °C

Challenge: Need melting point, item `COc1ccc(CNc2nc(NCCCc3ccc(C(C)(C)O)cc3)nc3ncccc23)cc1OC`
Response given: 198 to 199 °C

Challenge: Need melting point, item Cc1cc(NC(=O)C(C)(O)COc2ccc(OCCBr)cc2)ccc1[N+](=O)[O-] (centres undefined)
Response given: 135 to 138 °C

Challenge: Need melting point, item `O=C(c1ccc(-c2cc3cnc(Nc4cccc(Cl)c4)nc3[nH]2)cc1)N1CCOCC1`
Response given: > 250 °C

Challenge: Need melting point, item `COCC(=O)Nc1cc2c(cc1Br)CCC2`
Response given: 84 to 86 °C

Challenge: Need melting point, item `C#CCN(Cc1cn(C(C)(C)C)nn1)Cc1cn(C(C)(C)C)nn1`
Response given: 126 °C

Challenge: Need melting point, item Cc1c(C)c2c(c(C)c1NC(=O)CC(C)(C)C)OC(C)(C)C2Cc1ccccc1 (centres undefined)
Response given: 209 to 210 °C
